Reference source: PubChem BioAssay

- assayedTarget: Albumin (Bos taurus) (UniProt P02769)
- Sequence (P02769 whole entry, looked up): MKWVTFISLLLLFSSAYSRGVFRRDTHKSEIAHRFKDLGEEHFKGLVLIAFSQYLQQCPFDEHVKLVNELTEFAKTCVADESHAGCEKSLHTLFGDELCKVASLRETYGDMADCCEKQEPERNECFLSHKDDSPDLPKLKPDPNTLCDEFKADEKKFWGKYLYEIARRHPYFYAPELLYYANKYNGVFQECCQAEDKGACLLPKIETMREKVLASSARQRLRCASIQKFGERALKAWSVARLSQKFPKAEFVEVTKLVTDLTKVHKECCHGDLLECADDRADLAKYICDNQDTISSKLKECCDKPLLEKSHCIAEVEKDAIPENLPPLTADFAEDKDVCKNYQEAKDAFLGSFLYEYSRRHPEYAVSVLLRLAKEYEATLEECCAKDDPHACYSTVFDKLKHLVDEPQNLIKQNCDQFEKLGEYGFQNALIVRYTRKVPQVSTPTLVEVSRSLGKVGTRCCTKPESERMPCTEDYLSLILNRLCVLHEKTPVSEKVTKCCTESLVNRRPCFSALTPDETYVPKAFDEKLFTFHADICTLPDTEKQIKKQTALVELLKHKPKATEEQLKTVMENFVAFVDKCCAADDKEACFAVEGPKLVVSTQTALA
- measurementDescription: compounds binding labelled BSA control protein – biochemical, small-molecule microarray, Alexa647 label, 635/667 nm fluorescence, artefact control for SMM control protein annotation, profiling panel (AID 1118);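 also: score merges 667 nm emission intensity and signal-to-noise per printed compound spot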
- measurementContext: BSA-A647 binding, fluorescence 635 nm, higher = more signal
Below, each entry is listed alongside its reported composite z-score.

| compound | composite z-score |
| --- | --- |
| C=C(/C(=C/C[C@H](OC(=O)c1ccncc1)c1ccc(OCCO)cc1)c1cc(C(=O)OC)ccc1OC)C(C)C | 0.605 |
| CCCCN1CC=CC23O[C@@H]4C=CCOC(=O)[C@@H]4[C@H]2C(=O)N(CCCCCCO)[C@@H]3C1=O (some centres not stated) | -0.469 |
| CCCNC(=O)[C@@H]1c2ccccc2C(=O)N(Cc2ccccc2OC)[C@H]1c1ccc(CO)cc1 | 0.735 |
| C=CCN1C(=O)[C@]2(O[C@H](CCO)[C@@H]([Si](C)(C)c3ccc(OC)cc3)[C@@H]2C)c2cc(N(C=O)c3ccccc3)ccc21 | 0.0925 |
| COc1ccc(C(=O)Nc2cccc(CN3C(=O)[C@]4(O[C@H](CCn5cc(CCO)nn5)[C@@H]([Si](C)(C)c5ccc(OC)cc5)[C@@H]4C)c4ccccc43)c2)cc1 | 0.196 |
| C=C(C(=O)CC[C@H](OC(C)=O)c1ccccc1OCCO)C(C)C | 0.0421 |
| CC(=O)NCCCC[C@@H]1NC(=O)[C@H]2C[C@@H](C(=O)NCCCCCNC(=O)CS)[C@@H](c3ccc(O)cc3)N2C1=O | -0.16 |
